- PROCEDURE_DETAILS: Acute toxicity in ip dosed ICR mouse administered as single dose measured for 14 days
- Assay type: organism-based
- RUN_CONDITIONS: in vivo, time 14 day
PARAMETER: LD50 at 336 h (mg/kg)
Please reply with the bare figure in mg/kg and do not write the unit itself.

Q: For the compound O=C1C=CCC/C1=C\c1ccc(OC(F)(F)F)cc1 , give its reported LD50 at 336 h.
A: 366
